Target: T1, GIP receptor (human (printed as hGIPR), UniProt P48546 22-466)
T1 sequence (looked up): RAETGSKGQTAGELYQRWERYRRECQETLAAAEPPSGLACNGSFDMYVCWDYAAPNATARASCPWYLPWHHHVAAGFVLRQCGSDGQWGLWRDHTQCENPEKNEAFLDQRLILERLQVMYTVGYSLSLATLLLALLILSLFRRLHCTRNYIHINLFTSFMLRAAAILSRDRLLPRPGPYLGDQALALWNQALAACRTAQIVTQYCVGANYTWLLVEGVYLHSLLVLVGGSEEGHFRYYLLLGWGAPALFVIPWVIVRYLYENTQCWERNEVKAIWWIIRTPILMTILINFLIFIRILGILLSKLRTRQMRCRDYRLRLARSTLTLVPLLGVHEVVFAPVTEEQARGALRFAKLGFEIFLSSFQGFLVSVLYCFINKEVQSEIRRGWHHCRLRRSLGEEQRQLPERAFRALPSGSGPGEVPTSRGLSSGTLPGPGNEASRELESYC
Experiment: cell-based or functional assay
Starred links: 1 amine or outer side, 2 acyl side, 3 side chain; linkers in the order of their positions; H or OH if unused. Non-standard residues stand in square brackets, D forms with d. Groups on a side chain read outwards from the residue. No end group written: not given here. *: point of attachment. C20 diacid = O=C(O)CCCCCCCCCCCCCCCCCCC(=O)*; γGlu = O=C(O)[C@H](CCC(=O)[*:2])N[*:1]; εLys = N[C@@H](CCCCN[*:1])C(=O)[*:2]; Aib = CC(C)(N)C(=O)O
measurementKind: EC50 hGIPR 0.5% hP (CreLuc) (pM)
One number for each entry, in pM.

These solved cases illustrate the format of a correct answer.
binder: Y[Aib]EGTFTSDYSI[Aib]LEEQAQ[Aib]AFVEWLIK([εLys-γGlu-γGlu-γGlu-γGlu-γGlu-C20 diacid])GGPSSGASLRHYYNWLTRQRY-NH2 (also: TFA salt) [Compound 181]
EC50 hGIPR 0.5% hP (CreLuc) (pM): 160
--
binder: Y[Aib]EGTFTSDYSI[Aib]LEKQAQ[Aib]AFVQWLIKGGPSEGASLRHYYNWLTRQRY-NH2 (not fully specified (residue 28); also: TFA salt) [Compound 243]
EC50 hGIPR 0.5% hP (CreLuc) (pM): 540
--
binder: Y[Aib]EGTFTSDYSI[Aib]LEKQAQ[Aib]AFVEWLIK([γGlu-γGlu-γGlu-γGlu-γGlu-γGlu-C20 diacid])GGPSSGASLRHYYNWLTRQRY-NH2 (also: TFA salt) [Compound 235]
EC50 hGIPR 0.5% hP (CreLuc) (pM): 340
--
binder: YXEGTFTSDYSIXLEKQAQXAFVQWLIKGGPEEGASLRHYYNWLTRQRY (Aib at 2, 13, 20; K28 side chain carries C18DA-E-E-E-E-E-E-eLys (SEQ ID NO: 643); C-terminal amide) [Compound 196]
EC50 hGIPR 0.5% hP (CreLuc) (pM): 250

// next entry
Challenge: Quick one: EC50 hGIPR 0.5% hP (CreLuc) of YXEGTFTSDYSIXLEKQAQXAFVEWLIKGGPSTGASLRHYYNWLTRQRY (Aib at 2, 13, 20; K28 side chain carries C20DA-gGlu-gGlu-gGlu-gGlu-gGlu-gGlu-eLys; C-terminal amide) [Compound 244] ?
Response given: 320
